# target_desc: LPAR1 (Homo sapiens, UniProt Q92633)
# Sequence (Q92633 whole entry): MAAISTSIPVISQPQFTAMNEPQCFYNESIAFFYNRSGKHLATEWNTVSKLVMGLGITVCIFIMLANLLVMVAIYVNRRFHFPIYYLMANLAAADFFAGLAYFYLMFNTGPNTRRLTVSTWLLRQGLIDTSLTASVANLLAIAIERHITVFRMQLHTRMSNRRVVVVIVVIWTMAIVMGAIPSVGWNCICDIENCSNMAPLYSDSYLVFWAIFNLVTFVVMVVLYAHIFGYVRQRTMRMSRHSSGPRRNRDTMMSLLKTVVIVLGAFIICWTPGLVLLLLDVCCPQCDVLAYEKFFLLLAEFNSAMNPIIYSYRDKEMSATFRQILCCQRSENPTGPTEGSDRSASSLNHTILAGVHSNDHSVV
# experiment_summary: LPAR1 calcium mobilization (reference compounds)
# Format: cell-based
parameter: pIC50
One number for each entry, as −log10 of the molar value.

Return pIC50 for the following compound: CCCN(C)C(=O)OCc1c(-c2ccc(O[C@H]3CCC[C@H](C(=O)O)C3)c(C)n2)nnn1C [BMS-986278, reference compound]
7.09

###

# target_desc: human LPAR4 (Homo sapiens)
# Sequence (Q99677 whole entry): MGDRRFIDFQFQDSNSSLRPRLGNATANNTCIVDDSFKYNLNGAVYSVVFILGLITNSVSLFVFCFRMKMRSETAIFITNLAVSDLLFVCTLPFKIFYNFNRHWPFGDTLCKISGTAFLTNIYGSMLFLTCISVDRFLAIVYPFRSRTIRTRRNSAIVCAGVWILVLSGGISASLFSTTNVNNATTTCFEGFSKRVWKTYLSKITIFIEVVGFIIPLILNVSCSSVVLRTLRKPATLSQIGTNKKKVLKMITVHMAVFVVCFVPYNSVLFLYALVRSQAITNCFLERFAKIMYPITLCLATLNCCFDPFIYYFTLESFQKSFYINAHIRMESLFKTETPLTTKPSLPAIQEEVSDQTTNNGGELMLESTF
# experiment_summary: LPA-induced calcium mobilization in transiently transfected HEK293T cells
# measurement_context: 3 h preincubation; LPA at EC80 10 µM
parameter: pIC50
Answers are plain numbers, as −log10 of the molar value.

Return pIC50 for the following compound: COc1ccc(NC(=O)N(c2ccccc2C(C)C)C2CCC(C(=O)O)CC2)c(OC(F)F)n1 (stereo not shown)
6.22

###

# target_desc: LPAR1 (Homo sapiens)
# experiment_summary: LPA-induced calcium mobilization in transiently transfected HEK293T cells
# Assay type: cell-based
# Parameters: host or cells: HEK293T
# measurement_context: 3 h preincubation; LPA at EC80 5 µM
parameter: pIC50
Give bare numbers, as −log10 of the molar value.

Return pIC50 for the following compound: COc1ccc(NC(=O)N(c2ccccc2C(C)C)C2CCC(C(=O)O)CC2)c(OC(F)F)n1 (stereo not shown) [PIPE-791]
8.10

###

# target_desc: LPAR1 (Mus musculus, UniProt P61793)
# Construct: from tissue; host or cells: lung of female C57BL6/N mice, dosed in vivo
# Sequence (P61793 whole entry): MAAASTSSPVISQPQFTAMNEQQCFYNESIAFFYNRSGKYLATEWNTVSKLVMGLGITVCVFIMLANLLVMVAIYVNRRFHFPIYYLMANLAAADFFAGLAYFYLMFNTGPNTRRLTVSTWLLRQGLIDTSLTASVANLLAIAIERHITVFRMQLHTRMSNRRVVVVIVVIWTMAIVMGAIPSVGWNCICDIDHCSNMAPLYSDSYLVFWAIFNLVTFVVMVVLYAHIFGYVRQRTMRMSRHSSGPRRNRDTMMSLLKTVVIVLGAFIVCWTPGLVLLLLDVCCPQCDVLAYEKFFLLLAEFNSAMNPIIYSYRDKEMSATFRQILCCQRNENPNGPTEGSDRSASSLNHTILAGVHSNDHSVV
# experiment_summary: In vivo lung receptor occupancy with [3H]-PIPE-497
# measurement_context: once per day for 4 days (steady state), 3 h after last dose; read-out: lung receptor occupancy EC50 (plasma concentration)
parameter: pEC50
Answers are plain numbers, as −log10 of the molar value.

Identify measured pEC50 obtained with LPAR1 (Mus musculus, UniProt P61793) for COc1ccc(NC(=O)N(c2ccccc2C(C)C)C2CCC(C(=O)O)CC2)c(OC(F)F)n1 (stereo not shown) .
7.74

###

# target_desc: human LPAR6 (Homo sapiens, UniProt P43657)
# Sequence (P43657 whole entry): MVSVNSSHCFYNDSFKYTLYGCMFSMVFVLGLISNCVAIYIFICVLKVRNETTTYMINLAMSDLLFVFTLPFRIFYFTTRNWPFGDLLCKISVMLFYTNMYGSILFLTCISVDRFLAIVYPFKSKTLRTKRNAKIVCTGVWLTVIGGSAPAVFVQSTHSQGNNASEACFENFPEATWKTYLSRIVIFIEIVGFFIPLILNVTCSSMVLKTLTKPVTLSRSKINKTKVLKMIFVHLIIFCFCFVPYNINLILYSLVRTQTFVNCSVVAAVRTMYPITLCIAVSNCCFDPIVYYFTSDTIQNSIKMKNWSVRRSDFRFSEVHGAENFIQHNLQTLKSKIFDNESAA
# experiment_summary: LPA-induced calcium mobilization in transiently transfected HEK293T cells
# measurement_context: 3 h preincubation; LPA at EC80 13 µM
parameter: pIC50
Answers are plain numbers, as −log10 of the molar value.

Return pIC50 for the following compound: COc1ccc(NC(=O)N(c2ccccc2C(C)C)C2CCC(C(=O)O)CC2)c(OC(F)F)n1 (stereo not shown)
6.09

###

# target_desc: LPAR1 (Mus musculus)
# Construct: from tissue; host or cells: lung of female C57BL6/N mice, dosed in vivo
# experiment_summary: In vivo lung receptor occupancy with [3H]-PIPE-497
# measurement_context: single oral dose, 3 h; read-out: lung receptor occupancy EC50 (plasma concentration)
parameter: EC50 (µM)
Numbers only, in µM.

Return EC50 for the following compound: COc1ccc(NC(=O)N(c2ccccc2C(C)C)C2CCC(C(=O)O)CC2)c(OC(F)F)n1 (stereo not shown)
0.079

###

# target_desc: human LPAR3 (Homo sapiens)
# Construct: host or cells: HEK293T
# Sequence (Q9UBY5 whole entry): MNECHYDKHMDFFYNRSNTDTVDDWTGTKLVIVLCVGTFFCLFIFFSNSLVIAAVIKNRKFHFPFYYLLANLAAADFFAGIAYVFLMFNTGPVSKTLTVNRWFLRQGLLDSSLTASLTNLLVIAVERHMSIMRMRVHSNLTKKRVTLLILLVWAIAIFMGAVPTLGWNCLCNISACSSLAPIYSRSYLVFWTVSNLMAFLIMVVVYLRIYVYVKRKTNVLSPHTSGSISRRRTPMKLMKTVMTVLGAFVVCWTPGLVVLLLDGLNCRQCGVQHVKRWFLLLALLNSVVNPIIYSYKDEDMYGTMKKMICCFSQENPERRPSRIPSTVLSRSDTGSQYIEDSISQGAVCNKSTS
# experiment_summary: LPA-induced calcium mobilization in transiently transfected HEK293T cells
# Assay type: cell-based
# measurement_context: 3 h preincubation; LPA at EC80 10 µM
parameter: pIC50
One number for each entry, as −log10 of the molar value.

Return pIC50 for the following compound: COc1ccc(NC(=O)N(c2ccccc2C(C)C)C2CCC(C(=O)O)CC2)c(OC(F)F)n1 (stereo not shown)
6.40
